Experiment: S. cerevisiae growth modulation with rapamycin, primary screen, strain BY4716, OD600, 96 h (AID 1091); further: test concentration not given here
Settings: higher = more signal, called active from +8 up or from −8 down
OBSERVABLE: z-score
Keep the answer to the number alone.

CC(C)=CCCC(C)=CCON=C1C[C@@H](O)[C@@H](O)[C@@H]2[C@@H]3C(=O)N(C4CCCCC4)C(=O)[C@@H]3CC[C@@H]12 : -0.513
Cc1ccc(S(=O)(=O)OC[C@H]2CN3[C@H](c4ccc(Br)cc4)[C@@H](C)CC[C@H]3C(=O)O2)cc1 : -3.38

Asked: Using known records, supply z-score for CCOC(=O)[C@H](Cc1ccccc1)NC(=O)CCC1CC(OC(=O)NCc2ccc3c(c2)OCO3)CC2(CCCC(COC(=O)NCCC(C)C)O2)O1 (stereo partly drawn)
Given back: -0.2

Asked: Using known records, supply z-score for C#CCCCON=C1C[C@@H](O)[C@@H](O)[C@@H]2[C@@H]3C(=O)N(c4ccc(F)cc4F)C(=O)[C@@H]3CC[C@@H]12
Given back: -1.3

Asked: Using known records, supply z-score for CO[C@@H]1COC(=O)CC=C[C@H](C)[C@H](OC)COC(=O)[C@H](C)NC(=O)CC=C[C@H]1C
Given back: 0.329

Asked: Using known records, supply z-score for O=C1CCCC=C1C(O)CCOC(c1ccccc1)(c1ccccc1)c1ccccc1 (stereo not drawn)
Given back: 1.55

Asked: Using known records, supply z-score for O=C1[C@H]2[C@H]3[C@H](O)[C@H](O)CC(=NOC[C@@H](O)COCc4ccco4)[C@H]3CC[C@H]2C(=O)N1c1ccc(F)cc1F
Given back: -1.97

Asked: Using known records, supply z-score for O=C(C=Cc1ccc2c(c1)OCO2)c1ccc(F)cc1
Given back: 3.87

====

Biological target: Neurogenic locus notch homolog protein 3 (Homo sapiens) (UniProt Q9UM47)
Sequence (Q9UM47 whole entry, looked up): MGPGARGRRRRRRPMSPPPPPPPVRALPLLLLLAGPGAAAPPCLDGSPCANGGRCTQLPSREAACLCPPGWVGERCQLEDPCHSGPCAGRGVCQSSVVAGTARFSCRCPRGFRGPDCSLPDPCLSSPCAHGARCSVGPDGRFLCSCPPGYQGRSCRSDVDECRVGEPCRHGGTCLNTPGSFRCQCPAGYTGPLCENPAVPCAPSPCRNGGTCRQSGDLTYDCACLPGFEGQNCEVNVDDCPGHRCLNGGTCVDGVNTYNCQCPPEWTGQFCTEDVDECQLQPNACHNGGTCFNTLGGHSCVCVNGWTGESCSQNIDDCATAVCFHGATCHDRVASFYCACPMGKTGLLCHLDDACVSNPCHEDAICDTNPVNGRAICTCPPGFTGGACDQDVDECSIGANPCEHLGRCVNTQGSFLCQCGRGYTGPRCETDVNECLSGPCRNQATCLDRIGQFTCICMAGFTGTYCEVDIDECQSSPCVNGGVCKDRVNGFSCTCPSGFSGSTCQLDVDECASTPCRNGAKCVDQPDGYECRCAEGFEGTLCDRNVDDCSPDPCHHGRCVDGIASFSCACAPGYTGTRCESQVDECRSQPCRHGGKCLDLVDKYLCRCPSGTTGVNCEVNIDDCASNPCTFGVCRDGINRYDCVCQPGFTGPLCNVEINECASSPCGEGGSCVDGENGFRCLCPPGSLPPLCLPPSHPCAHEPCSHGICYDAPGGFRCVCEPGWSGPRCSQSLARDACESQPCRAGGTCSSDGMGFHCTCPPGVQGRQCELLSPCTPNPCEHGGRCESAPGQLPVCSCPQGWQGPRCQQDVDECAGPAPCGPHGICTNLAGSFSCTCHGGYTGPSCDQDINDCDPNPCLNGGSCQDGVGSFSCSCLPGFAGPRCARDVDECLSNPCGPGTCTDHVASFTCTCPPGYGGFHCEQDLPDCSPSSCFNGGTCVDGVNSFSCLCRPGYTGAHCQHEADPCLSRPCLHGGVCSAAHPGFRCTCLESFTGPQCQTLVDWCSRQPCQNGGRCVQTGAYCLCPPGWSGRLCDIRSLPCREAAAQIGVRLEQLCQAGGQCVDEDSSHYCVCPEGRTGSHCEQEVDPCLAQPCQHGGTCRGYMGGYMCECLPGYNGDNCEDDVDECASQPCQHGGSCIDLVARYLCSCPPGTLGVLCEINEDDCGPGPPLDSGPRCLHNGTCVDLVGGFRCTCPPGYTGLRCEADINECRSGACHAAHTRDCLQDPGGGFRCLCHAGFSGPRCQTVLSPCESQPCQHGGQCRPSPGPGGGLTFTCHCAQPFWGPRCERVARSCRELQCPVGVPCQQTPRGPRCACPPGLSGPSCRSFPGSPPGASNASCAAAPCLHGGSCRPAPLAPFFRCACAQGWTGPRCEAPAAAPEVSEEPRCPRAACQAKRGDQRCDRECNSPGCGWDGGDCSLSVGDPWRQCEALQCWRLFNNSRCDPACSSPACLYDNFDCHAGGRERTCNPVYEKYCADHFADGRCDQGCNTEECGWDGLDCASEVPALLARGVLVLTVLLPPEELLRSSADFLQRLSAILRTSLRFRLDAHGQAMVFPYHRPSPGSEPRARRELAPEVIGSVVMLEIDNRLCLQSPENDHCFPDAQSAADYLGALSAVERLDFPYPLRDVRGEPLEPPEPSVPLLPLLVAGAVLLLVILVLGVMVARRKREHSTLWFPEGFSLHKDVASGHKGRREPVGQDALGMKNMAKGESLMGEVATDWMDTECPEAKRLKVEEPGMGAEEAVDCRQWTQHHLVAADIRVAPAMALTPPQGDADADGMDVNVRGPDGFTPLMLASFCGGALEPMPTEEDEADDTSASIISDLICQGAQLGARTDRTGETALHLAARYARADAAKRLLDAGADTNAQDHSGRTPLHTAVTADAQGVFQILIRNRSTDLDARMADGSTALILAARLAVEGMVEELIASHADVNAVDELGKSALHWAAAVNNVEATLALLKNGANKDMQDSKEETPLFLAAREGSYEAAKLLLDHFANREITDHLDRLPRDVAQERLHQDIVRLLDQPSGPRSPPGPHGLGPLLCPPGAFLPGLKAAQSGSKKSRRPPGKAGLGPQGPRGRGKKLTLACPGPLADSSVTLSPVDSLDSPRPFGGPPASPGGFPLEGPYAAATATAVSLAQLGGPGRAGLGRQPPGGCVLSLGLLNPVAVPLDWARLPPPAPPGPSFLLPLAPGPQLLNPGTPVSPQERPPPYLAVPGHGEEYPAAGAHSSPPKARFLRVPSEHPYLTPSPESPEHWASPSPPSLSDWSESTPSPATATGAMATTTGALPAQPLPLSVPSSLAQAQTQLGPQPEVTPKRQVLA
Assay: NOTCH3 binders on small-molecule microarray, primary screen, biochemical, 635/667 nm fluorescence (AID 1096)
Details: NOTCH3 binding, 635 nm fluorescence, higher = more signal
Entry flag: T if composite z-score reaches 0.5; F if it does not.

Study these solved cases before continuing.
CCc1cc2c(nc1CC)CCN(CCC(C)=NO[C@@H](C)c1cn([C@H](CO)Cc3ccccc3)nn1)C2 : F
Cc1ccc(S(=O)(=O)N[C@H]2COC(=O)CC=C[C@H](C)[C@@H](NS(=O)(=O)c3ccc(C)cc3)COC(=O)CC=C[C@@H]2C)cc1 : F
CO[C@H]1COC(=O)[C@@H](Cc2ccccc2)NC(=O)[C@@H](C)COC(=O)CCC[C@@H]1C : F

Asked: Say whether COC(=O)CC=C[C@@H](C)[C@@H](C=NO[C@H](C)c1cn([C@H](CO)Cc2ccccc2)nn1)OC shows composite z-score of 0.5 or more.
Given back: T

Asked: Say whether C[C@@H]1C=CCC(=O)OC[C@H]2O[C@@H](C=C[C@@H]2O)[C@H](C)C=CCC(=O)OC1 shows composite z-score of 0.5 or more.
Given back: T

Asked: Say whether COc1ccc(O[C@@H]2[C@H](O)CO[C@@H]2C=Cc2ccccc2)cc1 shows composite z-score of 0.5 or more.
Given back: F

Asked: Say whether COC(=O)CC=C[C@@H](C)[C@@H]1C=C[C@H](O)[C@@H](CO)O1 shows composite z-score of 0.5 or more.
Given back: T

Asked: Say whether COC(=O)CC=C[C@@H](C)[C@H](OCc1cccc(-c2ccccc2)c1)C1CCCCC1 shows composite z-score of 0.5 or more.
Given back: F

Asked: Say whether C[C@H](ON=C1[C@H]2CCn3c(=O)n(-c4ccccc4)c(=O)n3[C@H]2[C@H](O)[C@@H]2O[C@H]12)c1cn([C@H](CO)Cc2ccccc2)nn1 shows composite z-score of 0.5 or more.
Given back: T

====

Assay: E. coli acrAB mutant growth effects, primary screen, E. coli filamentation inducers, strain DRC39, OD650, 48 h (AID 1179);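 further: screen aims at cell division blockers that make cells filament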
Details: E. coli DRC39 delta-acrAB growth, higher = more signal, called active from +8 up or from −8 down
Parameter z-score: see the listing below.
Keep the answer to the number alone.

Asked: Using known records, supply z-score for C[C@@H](c1ccccc1)N1C(=O)[C@H]2[C@H]3[C@H](O)[C@H](O)CC(=NO[C@@H]4O[C@H](CO)[C@@H](O)[C@H](O)[C@H]4O)[C@H]3CC[C@H]2C1=O
Given back: 0.11

Asked: Using known records, supply z-score for C[C@@H](ON=C1[C@H]2CCn3c(=O)n(-c4ccccc4)c(=O)n3[C@H]2[C@H](O)[C@@H]2O[C@H]12)c1cn([C@@H]2COC[C@H]2O)nn1
Given back: -0.317

Asked: Using known records, supply z-score for CCN1C(=O)[C@H]2[C@H]3[C@H](O)[C@H](O)CC(=NOCC(C)C)[C@@H]3CC[C@H]2C1=O
Given back: -1.86

Asked: Using known records, supply z-score for CCOC(=O)[C@H](CC(C)C)NC(=O)CCC1CC(OC(=O)NCc2cccc3ccccc23)CC2(CCCC(COC(=O)NCCOC)O2)O1 (some centres undefined)
Given back: -0.0291

Asked: Using known records, supply z-score for Cc1ccc(S(=O)(=O)NC(CCc2ccccc2)CC(=O)C(C)(C)C)cc1 (centres undefined)
Given back: 0.274

====

Target: Dickkopf-related protein 1 (Homo sapiens) (UniProt O94907)
Sequence (O94907 whole entry, looked up): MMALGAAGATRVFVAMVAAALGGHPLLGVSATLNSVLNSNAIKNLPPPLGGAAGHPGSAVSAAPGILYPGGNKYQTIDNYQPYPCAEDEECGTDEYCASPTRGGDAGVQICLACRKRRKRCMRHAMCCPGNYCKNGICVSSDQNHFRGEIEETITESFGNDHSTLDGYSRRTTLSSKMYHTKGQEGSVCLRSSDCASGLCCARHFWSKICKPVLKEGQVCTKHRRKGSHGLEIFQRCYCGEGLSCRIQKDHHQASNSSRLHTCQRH
Test: DKK1 binders on small-molecule microarrays, primary screen, biochemical, small-molecule microarray, 635 nm fluorescence scan (AID 1106);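 further: score merges emission near 667 nm with signal to noise over three replicate slides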
Settings: DKK1 binding, higher = more signal
Entry flag: yes if composite z-score reaches 0.03; no if it does not.

Study these solved cases before continuing.
CCN1C(=O)[C@H]2[C@H]3[C@H](O)[C@H](O)CC(=O)[C@H]3CC[C@H]2C1=O : yes
CON=C1[C@H]2CCn3c(=O)n(-c4ccccc4)c(=O)n3[C@H]2[C@H](O)[C@@H]2O[C@H]12 : yes
CCCNC(=O)OC[C@H]1O[C@H](CCON=C(C)CCC(=O)OC[C@H]2O[C@H](c3ccccc3)C=C[C@@H]2Oc2ccc(OC)cc2)C=C[C@@H]1Oc1ccc(OC)cc1 : no
COC(=O)[C@@H]1CC[C@H](C)[C@@H](c2ccc(C)cc2)N1C(=O)c1ccc(C=NOC[C@@H](C)[C@H](OCc2ccccc2)C(C)C)cc1 : yes
C#CCCCON=C1C[C@@H](O)[C@@H](O)[C@@H]2[C@@H]3C(=O)N(c4ccc(F)cc4F)C(=O)[C@@H]3CC[C@H]12 : yes

Here is the next item to consider.
Asked: Say whether C=CC1=C[C@H](O)[C@@H]2O[C@@H]2C12OCCCO2 shows composite z-score of 0.03 or more.
Given back: no

====

Molecular target: Fibroblast growth factor 2 (Homo sapiens)
Test: FGF2 binders on small-molecule microarrays, primary screen, biochemical, small-molecule microarray, 635/667 nm fluorescence (AID 1133)
Settings: small-molecule microarray binding, FGF2, fluorescence 635/667; higher = more signal
Entry flag: criterion met if composite z-score reaches 0.6; criterion not met if it does not.

Study these solved cases before continuing.
O=C1[C@H]2[C@H]3[C@H](O)[C@H](O)CC(=NOC[C@@H](O)COCc4ccco4)[C@H]3CC[C@H]2C(=O)N1C[C@@H]1CCCO1 : criterion met
C[C@H]1CC[C@H]2C(=O)O[C@H](COc3ccc(C(C)(C)C)cc3)CN2[C@@H]1c1ccc(Br)cc1 : criterion not met

Asked: Say whether C#CCCCON=C1[C@H]2CCn3c(=O)n(-c4ccccc4)c(=O)n3[C@H]2[C@H](O)[C@@H]2O[C@H]12 shows composite z-score of 0.6 or more.
Given back: criterion not met

Asked: Say whether CCOC(=O)C1=NO[C@@]2(C=C(Br)C3(OCCCO3)[C@H]3O[C@H]32)C1 shows composite z-score of 0.6 or more.
Given back: criterion met

Asked: Say whether CO[C@@H]1COC(=O)[C@H](CCSC)NC(=O)CC=C[C@@H](C)COC(=O)[C@H](C)NC(=O)CC=C[C@H]1C shows composite z-score of 0.6 or more.
Given back: criterion met

Asked: Say whether CCOC(=O)[C@H](Cc1ccccc1)NC(=O)CCC1CC(OC(=O)NCc2cccc3ccccc23)CC2(CCCC(COC(=O)NCc3cccc(C(F)(F)F)c3)O2)O1 (some centres undefined) shows composite z-score of 0.6 or more.
Given back: criterion not met

====

Target: Left-right determination factor 2 (Homo sapiens)
Test: LEFTY2 binders on small-molecule microarrays, primary screen, biochemical, small-molecule microarray, 635 nm fluorescence scan (AID 1110)
Settings: LEFTY2 binding, higher = more signal
OBSERVABLE: composite z-score
Keep the answer to the number alone.

As a guide, the following entries are already answered.
C#CCCCON=C1[C@H]2CCn3c(=O)n(C)c(=O)n3[C@H]2[C@H](O)[C@@H]2O[C@H]12 : 0.503
CCOC(=O)[C@H](CC(C)C)NC(=O)CCC1CC(OC(=O)NCCc2ccc(F)cc2)CC2(CCCC(COC(=O)NCC3CCCCC3)O2)O1 (stereo partly drawn) : 0.351
CC(=O)OC[C@H]1O[C@H](CC=NO[C@H](C)c2cn([C@H](CO)Cc3ccccc3)nn2)C=C[C@@H]1OC(C)=O : 0.852

Asked: Using known records, supply composite z-score for O=C1CCCC(C2=CCCCC2=O)C1 (stereo not drawn)
Given back: 0.524

Asked: Using known records, supply composite z-score for CON=Cc1ccc(C(=O)N2[C@H](c3ccc(C)cc3)[C@@H](C)CC[C@H]2C(=O)OC)cc1
Given back: -0.203

Asked: Using known records, supply composite z-score for CCCNC(=O)OC[C@H]1O[C@H](CCON=C(C)C)C=C[C@@H]1Oc1ccc(OC)cc1
Given back: -0.143

Asked: Using known records, supply composite z-score for O=c1n(-c2ccccc2)c(=O)n2n1CC[C@@H]1C(=NOCc3ccccc3)[C@H]3O[C@H]3[C@@H](O)[C@@H]12
Given back: 0.582

Asked: Using known records, supply composite z-score for C[C@H]1CC[C@H]2C(=O)OC(CO)CN2[C@@H]1c1ccc(Br)cc1 (stereo partly drawn)
Given back: 0.137
